Data provenance: ChEMBL document CHEMBL3994637

Recorded measurements of log10 of MIC, one per entry
System: Staphylococcus aureus
assay-explanation: Antibacterial activity against Staphylococcus aureus ATCC 25923 by broth microdilution method
Format: functional
Form field - Quantity: MIC; Unit: mg/L; Scale: log10

Some compounds with known log10 of MIC results, for comparison:
• CC(Cn1sc2ccccc2c1=O)n1sc2ccccc2c1=O (stereo not drawn) = 1.09
• O=c1c2ccccc2sn1-c1cccc2ccccc12 = 0.49
• O=c1c2ccccc2sn1-c1ccc(Cl)cc1 = 0.80

The compound O=c1c2ccccc2sn1-c1ccccc1F on Staphylococcus aureus: log10 of MIC was 1.40

Record for O=c1c2ccccc2sn1C1CCCCC1 under target or system Staphylococcus aureus: log10 of MIC reported as 0.99

----------
Test system: Staphylococcus aureus
assay-explanation: Antibacterial activity against methicillin-resistant Staphylococcus aureus ATCC 700699 by broth microdilution method
Assay type: functional
run-conditions: Mu50
assay-readout: log10(MIC) (log10 of the value in µg/mL)
Heads up: the numbers are on a log10 scale; they represent MIC in µg/mL.

- O=c1c2ccccc2sn1-c1ccccc1Cl: 1.10
- COC(=O)[C@H](CC(C)C)n1sc2ccccc2c1=O: 0.54
- O=c1c2ccccc2sn1-c1cccc2ccccc12: 0.49

Field log10(MIC) (entry O=c1c2ccccc2sn1-c1cccc(F)c1 ) reads 0.80

Data point: COC(=O)[C@H](C)NC(=O)[C@H](C)n1sc2ccccc2c1=O ; log10(MIC) = 0.88

----------
Test system: Sporothrix schenckii
assay-explanation: Anti-fungal activity against Sporothrix schenckii after 48 hrs by broth microdilution method
Assay type: functional
assay-readout: IC50

The following compounds have reported results that may help.
• O=c1c2ccccc2sn1-c1ccccc1-n1sc2ccccc2c1=O = > 50 µg/mL
• COc1ccc(-n2sc3ccccc3c2=O)cc1 = 0.4 µg/mL
• CC[C@H](C)[C@@H](C(=O)OC)n1sc2ccccc2c1=O = 4.7 µg/mL
• O=c1c2ccccc2sn1Cc1ccc2c(c1)OCO2 = 0.3 µg/mL
• COC(=O)[C@@H](NC(=O)[C@H](C(C)C)n1sc2ccccc2c1=O)C(C)C = > 50 µg/mL

Continue with the next compound.
CC(=O)Nc1ccccc1-n1sc2ccccc2c1=O on Sporothrix schenckii gives IC50 = > 50 µg/mL

----------
Tested on: Staphylococcus aureus
assay-explanation: Antibacterial activity against Staphylococcus aureus ATCC 25923 by broth microdilution method
Format: functional
Define the label as label 1 when IC50 is strictly less than 2 µg/mL and as label 0 in all remaining cases.

Worked cases, answers included:
- O=c1c2ccccc2sn1C1CCCCC1: label 0
- O=c1c2ccccc2sn1CCn1sc2ccccc2c1=O: label 0
- Nc1ccccc1-n1sc2ccccc2c1=O: label 0
- COc1ccc(-n2sc3ccccc3c2=O)cc1: label 1
- CC(=O)Nc1ccccc1-n1sc2ccccc2c1=O: label 0
- COC(=O)[C@@H](NC(=O)[C@H](C(C)C)n1sc2ccccc2c1=O)C(C)C: label 0
- C[C@@H](c1ccccc1)n1sc2ccccc2c1=O: label 0
- O=c1c2ccccc2sn1-c1ccccc1: label 1

is_below(IC50, 2 µg/mL) for CC(C)Cn1sc2ccccc2c1=O ?
label 0

Please check: IC50 for Cc1ccc(-n2sc3ccccc3c2=O)cc1 , strictly under 2 µg/mL or not?
label 1

Does the reported IC50 of the following compound sit strictly below 2 µg/mL? O=c1c2ccccc2sn1Cc1ccc2c(c1)OCO2
label 0

Lab note: IC50 threshold 2 µg/mL. Does this compound come in strictly under it? O=c1c2ccccc2sn1C1CCCCC1n1sc2ccccc2c1=O (stereo not drawn)
label 0
